Experiment: Turbidity, derived count rate of scattered light
Format: physicochemical
Conditions: turbidity, derived count rate of scattered light, log10; data of Figure 2D
Class membership depends on Log10 Count Rate alone; the intervals are lower (below 2), middle (2 to below 3), upper (3 or more)

Could you tell me which band KLKQLL belongs to? middle

Could you tell me which band KIEIQINM belongs to? middle

Could you tell me which band KIKIKIQINMWQ belongs to? upper

Could you tell me which band NMWQKFKFQF belongs to? upper

Could you tell me which band EIEIEIEI belongs to? middle

Could you tell me which band KFKFQFNMW belongs to? middle

Could you tell me which band CKIKQIIRGD belongs to? upper

Could you tell me which band HHHHKIKIKIKIWWWW belongs to? upper

Could you tell me which band CKFKQFFNM belongs to? upper

Could you tell me which band EFEFQF belongs to? middle

Could you tell me which band CKIKIQINMWQ belongs to? upper

Could you tell me which band CKFKFQFW belongs to? upper

Could you tell me which band CSISIQI belongs to? upper

Could you tell me which band QCKAKAQA belongs to? upper

Could you tell me which band TKTLTKTL belongs to? middle

Could you tell me which band CEIEIQINM belongs to? lower

Could you tell me which band KIKIQINMWQ belongs to? upper

Could you tell me which band RGECKFKFQF belongs to? middle

Could you tell me which band KFKFQFW belongs to? middle

Could you tell me which band CKIKQII belongs to? lower

Could you tell me which band HIHIQIC belongs to? middle

Could you tell me which band RGDKIKIQINMWQ belongs to? upper

Could you tell me which band CKFKQFF belongs to? lower

Could you tell me which band HHHHKIKIQINMYYYY belongs to? upper

Could you tell me which band CSISIQINM belongs to? upper

Could you tell me which band QCKAKAQANM belongs to? middle

Could you tell me which band KAKAKAQA belongs to? lower

Could you tell me which band KIKIKIKI belongs to? middle

Could you tell me which band QCKFKQFFNM belongs to? upper

Could you tell me which band KFKFQFFF belongs to? upper

Could you tell me which band CRFRVPF belongs to? lower

Could you tell me which band KAKAQANMWQ belongs to? lower

Could you tell me which band CKIKQIINM belongs to? upper

Could you tell me which band KWKWQW belongs to? upper

Could you tell me which band KIKIKIKIWWWW belongs to? upper

Could you tell me which band QCKIKIQINM belongs to? upper

Could you tell me which band CEIEIQI belongs to? lower

Could you tell me which band KFKQFFNMWQ belongs to? middle

Could you tell me which band KFKFQFNM belongs to? middle

Could you tell me which band KIKIQINAWQ belongs to? upper

Could you tell me which band HLHLPLL belongs to? middle

Could you tell me which band FDPFDPFDP belongs to? middle

Could you tell me which band CKAKAQANMWQ belongs to? lower

Could you tell me which band NMWQKIKIQI belongs to? upper

Could you tell me which band HGDKCHGDKC belongs to? lower

Could you tell me which band KIKIKIKIYYYY belongs to? upper

Could you tell me which band RGDKIKIQI belongs to? middle

Could you tell me which band RGDCKFKFQF belongs to? upper

Could you tell me which band IKVAVKIKIQINM belongs to? upper

Could you tell me which band RGDSKIKIQIC belongs to? upper

Could you tell me which band KLKLKLQL belongs to? lower

Could you tell me which band RGDKIRGDKI belongs to? middle

Could you tell me which band KNDKND belongs to? lower

Could you tell me which band CEFEFQF belongs to? middle

Could you tell me which band CKIKIQIII belongs to? upper

Could you tell me which band KYKGAIIGNIK belongs to? lower

Could you tell me which band KFKFQF belongs to? middle

Could you tell me which band HHHHKAKAKAKAWWWW belongs to? middle

Could you tell me which band RGDSGGGGGGKIKIQIC belongs to? upper

Could you tell me which band NMWQKVGTPL belongs to? lower

Could you tell me which band KIKQIIN belongs to? lower

Could you tell me which band KIKIQIMWNQ belongs to? upper

Could you tell me which band QCKFKFQF belongs to? upper

Could you tell me which band KLKLQLL belongs to? lower

Could you tell me which band CKFKFQFNM belongs to? upper

Could you tell me which band QCKIKQIINM belongs to? upper

Could you tell me which band RGDCKIKIQINM belongs to? upper

Could you tell me which band HHHHKIKIKIKIYYYY belongs to? upper

Could you tell me which band RPRGLLLGNLR belongs to? middle

Could you tell me which band MDQMDQMDQMDQMDQ belongs to? lower
